# STUDY_TARGET: dopamine D2L receptor (Homo sapiens, UniProt P14416)
# Sequence (P14416 whole entry): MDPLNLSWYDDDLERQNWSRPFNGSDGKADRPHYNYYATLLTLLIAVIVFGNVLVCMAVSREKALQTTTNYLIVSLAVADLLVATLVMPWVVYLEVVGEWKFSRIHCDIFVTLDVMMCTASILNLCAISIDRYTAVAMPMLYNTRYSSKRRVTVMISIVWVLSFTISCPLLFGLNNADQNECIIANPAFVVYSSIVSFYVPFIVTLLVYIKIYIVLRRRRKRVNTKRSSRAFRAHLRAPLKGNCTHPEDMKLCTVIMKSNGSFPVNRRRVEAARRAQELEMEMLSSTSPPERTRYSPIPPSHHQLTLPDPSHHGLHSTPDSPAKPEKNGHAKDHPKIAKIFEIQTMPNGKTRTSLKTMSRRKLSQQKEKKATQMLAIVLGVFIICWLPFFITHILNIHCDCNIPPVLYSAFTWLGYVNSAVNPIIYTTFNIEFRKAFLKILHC
# EXPERIMENTAL_DETAILS: Radioligand binding, D2 ([3H]-raclopride displacement)
pKi: −log10 of the molar value.
MEASURED_PROPERTY: pKi

molecule=CN1CCN(c2nc3ccccc3c3c2ccn3S(=O)(=O)c2cccc(F)c2)CC1 measured_property=pKi reported_result=6.05
molecule=O=S(=O)(c1cccc2cccnc12)n1ccc2c(N3CCCCC3)nc3ccccc3c21 measured_property=pKi reported_result=5.23
molecule=O=S(=O)(c1cc(F)ccc1F)n1ccc2c(N3CCNCC3)nc3ccccc3c21 measured_property=pKi reported_result=5.29
molecule=O=S(=O)(c1cccc2cccnc12)n1ccc2c(N3CCNCC3)nc3ccccc3c21 measured_property=pKi reported_result=5.20
molecule=CN(C)CCNc1nc2ccccc2c2c1ccn2S(=O)(=O)c1ccccc1 measured_property=pKi reported_result=5.65
molecule=O=S(=O)(c1ccccc1Br)n1ccc2c(N3CCNCC3)nc3ccccc3c21 measured_property=pKi reported_result=5.15
molecule=COc1cccc(S(=O)(=O)n2ccc3c(N4CCNCC4)nc4ccccc4c32)c1 measured_property=pKi reported_result=5.15
molecule="O=S(=O)(c1cccc2cccnc12)n1ccc2c(NC3CCNC3)nc3ccccc3c21 (centres unmarked)" measured_property=pKi reported_result=5.19

###

Listed next: entries and their corresponding displacement % at 10^−6M, 5-HT6.
# STUDY_TARGET: 5-HT6 receptor (Homo sapiens)
# Sequence (P50406 whole entry): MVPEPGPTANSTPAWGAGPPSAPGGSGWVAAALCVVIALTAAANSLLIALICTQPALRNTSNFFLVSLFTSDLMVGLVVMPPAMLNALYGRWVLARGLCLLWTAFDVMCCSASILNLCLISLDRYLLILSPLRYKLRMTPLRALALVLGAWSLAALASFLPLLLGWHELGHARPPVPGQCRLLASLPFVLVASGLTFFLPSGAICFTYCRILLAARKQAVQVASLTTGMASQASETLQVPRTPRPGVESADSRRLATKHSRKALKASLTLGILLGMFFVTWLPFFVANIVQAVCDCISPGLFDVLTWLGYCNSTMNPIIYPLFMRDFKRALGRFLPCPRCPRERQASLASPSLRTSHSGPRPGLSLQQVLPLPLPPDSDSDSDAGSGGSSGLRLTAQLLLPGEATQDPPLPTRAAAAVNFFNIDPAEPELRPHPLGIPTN
# EXPERIMENTAL_DETAILS: Radioligand binding, 5-HT6 ([3H]-LSD displacement)
# CONDITION_INFO: 10^−6 M; values marked c in the 5-HT6 column
Marks after values point to notes of the source that are not given here.
MEASURED_PROPERTY: displacement % at 10^−6M, 5-HT6

molecule=CC(C)c1ccc(S(=O)(=O)n2ccc3c(N4CCNCC4)nc4ccc([N+](=O)[O-])cc4c32)cc1 study_target="5-HT6 receptor (Homo sapiens)" measured_property="displacement % at 10^−6M, 5-HT6" reported_result="86^c %"
molecule="O=S(=O)(c1cc(F)ccc1F)n1ccc2c(OC3CCNC3)nc3ccccc3c21 (stereo not shown)" study_target="5-HT6 receptor (Homo sapiens)" measured_property="displacement % at 10^−6M, 5-HT6" reported_result="96^c %"
molecule="O=S(=O)(c1cccc(Cl)c1)n1ccc2c(NC3CCNC3)nc3cc(F)ccc3c21 (stereo not shown)" study_target="5-HT6 receptor (Homo sapiens)" measured_property="displacement % at 10^−6M, 5-HT6" reported_result="95^c %"
molecule=O=S(=O)(c1cccc(Cl)c1)n1ccc2c(NC3CNC3)nc3ccccc3c21 study_target="5-HT6 receptor (Homo sapiens)" measured_property="displacement % at 10^−6M, 5-HT6" reported_result="98^c %"

###

# STUDY_TARGET: dopamine D2L receptor (Homo sapiens, UniProt P14416)
# EXPERIMENTAL_DETAILS: Radioligand binding, D2 ([3H]-raclopride displacement)
pKi: −log10 of the molar value.
Record 1 whenever pKi is at 6 or higher; record -1 when lower.

compound="Cc1ccc2sc(S(=O)(=O)n3ccc4c(NC5CCNC5)nc5ccccc5c43)cc2c1 (centres unmarked) [Compound 23]" assigned_class=-1
compound="COc1cccc(S(=O)(=O)n2ccc3c(NC4CCNC4)nc4ccccc4c32)c1 (centres unmarked) [Compound 13]" assigned_class=1
compound="O=S(=O)(c1ccc(Cl)c(Cl)c1)n1ccc2c(N3CCNCC3)nc3ccccc3c21 [Compound 34]" assigned_class=-1
compound="O=S(=O)(c1cccc(C(F)(F)F)c1)n1ccc2c(N3CCNCC3)nc3ccccc3c21 [Compound 35]" assigned_class=-1
compound="O=S(=O)(c1ccc(F)c(F)c1)n1ccc2c(N3CCNCC3)nc3ccccc3c21 [Compound 33]" assigned_class=-1
compound="CC(C)c1ccc(S(=O)(=O)n2ccc3c(N4CCNCC4)nc4ccccc4c32)cc1 [Compound 40]" assigned_class=-1

All values here come from patent US20170239237A1.
